Consider the following EC50 values measured on Somatostatin receptor type 3 (Homo sapiens, UniProt P32745).
Sequence (P32745 whole entry): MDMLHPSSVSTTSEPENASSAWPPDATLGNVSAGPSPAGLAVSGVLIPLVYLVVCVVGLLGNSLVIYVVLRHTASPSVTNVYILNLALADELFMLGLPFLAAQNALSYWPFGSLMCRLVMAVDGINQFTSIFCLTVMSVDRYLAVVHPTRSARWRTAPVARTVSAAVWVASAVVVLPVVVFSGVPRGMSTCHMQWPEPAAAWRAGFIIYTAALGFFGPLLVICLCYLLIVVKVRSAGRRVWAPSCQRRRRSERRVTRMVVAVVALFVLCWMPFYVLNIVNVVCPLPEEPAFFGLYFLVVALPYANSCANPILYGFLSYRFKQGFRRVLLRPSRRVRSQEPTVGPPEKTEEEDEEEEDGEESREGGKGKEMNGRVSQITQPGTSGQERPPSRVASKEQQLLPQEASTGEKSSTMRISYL
reported_endpoint: EC50 (µM)

Solved cases (3 shown):
CC1(c2nc(-c3ccccc3)c[nH]2)Cc2c([nH]c3ccccc23)C(C2CCOCC2)N1 (stereo in doubt; 6a) :: 0.017
Fc1ccc(-c2cc([C@H]3Cc4c([nH]c5ccccc45)[C@@H](C4CCOCC4)N3)[nH]n2)cc1 :: 0.938
c1ccc(-c2nc([C@H]3Cc4c([nH]c5ccccc45)[C@@H](C4CCOCC4)N3)c[nH]2)cc1 :: 0.405

A = Cc1csc(-c2c[nH]c([C@H]3Cc4c([nH]c5ccccc45)[C@@H](C4CCOCC4)N3)n2)c1
B = Cc1nc([C@]2(c3cnn(C)c3)N[C@@H](c3nc(-c4ccccn4)c[nH]3)Cc3c2[nH]c2ccccc32)no1
Record comparison, field EC50: mark the lower of A and B . Refer to your chosen item by its label in the answer.
B
(B: 0.0055 µM, A: 0.138 µM)

* * *

Reported pIC50 for target or system Voltage-gated inwardly rectifying potassium channel KCNH2 (Homo sapiens), by entry.
# pIC50 = -log10(concentration in molar units)

Some compounds with recorded pIC50:
CC1(c2nc(-c3ccccc3)c[nH]2)Cc2c([nH]c3ccccc23)C(C2CCOCC2)N1 (stereo in doubt; 6c) :: 5.79
CC1(c2nc(-c3ccccc3)c[nH]2)Cc2c([nH]c3ccccc23)C(C2CCOCC2)N1 (stereo in doubt; 6a) :: 5.66
CC1(c2nc(-c3ccccc3)c[nH]2)Cc2c([nH]c3ccccc23)C(C2CCOCC2)N1 (stereo in doubt; 6b) :: 5.53

Now for another entry.
I would be grateful if you could share the reported pIC50 for CC1(c2nc(-c3ccccc3)c[nH]2)Cc2c([nH]c3ccccc23)C(C2CCOCC2)N1 (stereo in doubt; 6d) .
6.28

* * *

Below are pIC50 values recorded for Somatostatin receptor type 3 (Homo sapiens).
pIC50: −log10 of the molar value.
reported_endpoint: pIC50

Please review the following examples before continuing.
CC1(c2nc(-c3ccccc3)c[nH]2)Cc2c([nH]c3ccccc23)C(C2CCOCC2)N1 (stereo in doubt; 6b) :: 6.22
c1ccc(-c2c[nH]c([C@H]3Cc4c([nH]c5ccccc45)[C@@H](C4CCOCC4)N3)n2)nc1 :: 6.96
Fc1cccc(-c2c[nH]c([C@H]3Cc4c([nH]c5ccccc45)[C@@H](C4CCOCC4)N3)n2)c1 :: 8.09

a = N#Cc1cccc(-c2c[nH]c([C@H]3Cc4c([nH]c5ccccc45)[C@@H](C4CCOCC4)N3)n2)c1
b = c1cncc(-c2c[nH]c([C@H]3Cc4c([nH]c5ccccc45)[C@@H](C4CCOCC4)N3)n2)c1
c = Clc1ccc(-c2c[nH]c([C@H]3Cc4c([nH]c5ccccc45)[C@@H](C4CCOCC4)N3)n2)cc1
List these items ordered by pIC50, big to small. Form entry: ranked labels (order as requested).
c, a, b
(c: 8.09, a: 7.43, b: 6.71)

* * *

The following molecules each carry a recorded IC50 for Voltage-gated inwardly rectifying potassium channel KCNH2 (Homo sapiens, UniProt Q12809).
Answer with a number only, understood to be in nM.

Solved entries (count: 3):
COc1cccc(-c2c[nH]c([C@H]3Cc4c([nH]c5ccccc45)[C@@H](C4CCOCC4)N3)n2)n1 :: 1020
FC(F)(F)Oc1cccc(-c2c[nH]c([C@H]3Cc4c([nH]c5ccccc45)[C@@H](C4CCOCC4)N3)n2)c1 :: 58
c1ccc2c3c([nH]c2c1)C(C1CCOCC1)NC(c1nc(C24CC5CC(CC(C5)C2)C4)c[nH]1)C3 (centres undefined) :: 506

# next molecule below
Value wanted: IC50 (Voltage-gated inwardly rectifying potassium channel KCNH2 (Homo sapiens, UniProt Q12809)) of entry Fc1ccc(-c2c[nH]c([C@H]3Cc4c([nH]c5ccccc45)[C@@H](C4CCOCC4)N3)n2)c(F)c1
634
